Record form. Attribute: IC50. Fill in for each entry.
tgt: Ubiquitin carboxyl-terminal hydrolase 28 (Homo sapiens) (UniProt Q96RU2)
Sequence (Q96RU2 whole entry, looked up): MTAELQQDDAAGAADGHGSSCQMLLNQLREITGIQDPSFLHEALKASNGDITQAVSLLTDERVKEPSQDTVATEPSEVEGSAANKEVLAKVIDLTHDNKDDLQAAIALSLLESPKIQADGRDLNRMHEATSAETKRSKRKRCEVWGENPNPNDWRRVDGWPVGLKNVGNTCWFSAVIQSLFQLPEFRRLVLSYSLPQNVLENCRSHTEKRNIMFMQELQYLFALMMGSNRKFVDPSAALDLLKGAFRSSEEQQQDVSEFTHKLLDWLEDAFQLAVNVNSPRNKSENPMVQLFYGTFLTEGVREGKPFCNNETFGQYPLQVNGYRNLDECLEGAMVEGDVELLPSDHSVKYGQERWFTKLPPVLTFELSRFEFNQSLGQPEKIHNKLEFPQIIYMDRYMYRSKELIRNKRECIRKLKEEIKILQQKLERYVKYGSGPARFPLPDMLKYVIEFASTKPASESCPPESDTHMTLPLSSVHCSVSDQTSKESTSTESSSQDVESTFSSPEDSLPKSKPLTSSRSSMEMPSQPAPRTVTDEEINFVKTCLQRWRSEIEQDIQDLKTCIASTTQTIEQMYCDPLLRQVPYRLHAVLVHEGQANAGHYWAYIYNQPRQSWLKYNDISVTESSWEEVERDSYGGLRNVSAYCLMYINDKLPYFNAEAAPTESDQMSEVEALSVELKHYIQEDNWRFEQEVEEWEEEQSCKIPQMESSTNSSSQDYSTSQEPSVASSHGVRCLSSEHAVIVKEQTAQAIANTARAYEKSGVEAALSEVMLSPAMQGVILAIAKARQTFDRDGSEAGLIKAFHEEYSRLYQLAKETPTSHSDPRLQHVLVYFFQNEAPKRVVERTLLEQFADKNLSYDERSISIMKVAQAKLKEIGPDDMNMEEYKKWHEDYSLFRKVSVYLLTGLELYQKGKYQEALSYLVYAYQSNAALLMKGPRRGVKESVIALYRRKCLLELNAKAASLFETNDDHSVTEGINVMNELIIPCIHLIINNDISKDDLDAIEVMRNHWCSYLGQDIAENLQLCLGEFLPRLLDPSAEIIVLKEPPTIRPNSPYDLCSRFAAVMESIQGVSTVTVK

What measured IC50 is associated with "Fc1ccccc1Cc1nc(-c2ccc3nncn3c2)no1" on Ubiquitin carboxyl-terminal hydrolase 28 (Homo sapiens) (UniProt Q96RU2)? 9.69 µM

How about "COC(=O)c1ccc2c(=O)n(CCCCCC(=O)NCCc3ccc(S(N)(=O)=O)cc3)c(=O)[nH]c2c1" ? 8.65 µM

Next molecule: "O=S(=O)(Nc1ccc2oc(-c3ccncc3)nc2c1)c1ccccc1" 40.8 µM

What about "Cn1c(SCc2ccccc2)nnc1-c1csc(-c2ccccc2)n1" ? 31.3 µM

Thanks! And "COc1ccc(C)cc1NC(=O)Cc1csc(NC(=O)c2ccc(=O)[nH]c2)n1" ? 46.9 µM

What about this molecule? "O=C(COc1ccc2c(c1)CCC2)Nc1ccc2c(c1)CCC2" 37.7 µM
